# Tested on: rabbits
# test: McGinty test (agonist, test compound alone)
# Type: in vivo, rabbit
# recorded_conditions: dose 30 micrograms
test_readout: McPhail Index, McGinty Assay (Agonist)

Request: Consider the compound shown here: "CC(=O)O[C@]1(C(C)=O)CC[C@H]2[C@@H]3CCC4=CC(=O)CCC4=C3[C@@H](c3ccc(N(C)C)c(F)c3)C[C@@]21C" What is its recorded McPhail Index, McGinty Assay (Agonist)?
Response: 3.6 +/- 0.1

Request: Now this one: "CC[C@]1(C(C)=O)CC[C@H]2[C@@H]3CCC4=CC(=O)CCC4=C3[C@@H](c3ccc(N(C)C)cc3)C[C@@]21C"
Response: 0.3 +/- 0.26

Request: What about this compound? "CC(=O)[C@@]1(O)CC[C@H]2[C@@H]3CCC4=CC(=O)CCC4=C3[C@@H](c3ccc(N(C)C)cc3)C[C@@]21C"
Response: 0 +/- 0
